tgt: EPHA5 (Homo sapiens, UniProt P54756)
Sequence (P54756 25-1037, species assumed): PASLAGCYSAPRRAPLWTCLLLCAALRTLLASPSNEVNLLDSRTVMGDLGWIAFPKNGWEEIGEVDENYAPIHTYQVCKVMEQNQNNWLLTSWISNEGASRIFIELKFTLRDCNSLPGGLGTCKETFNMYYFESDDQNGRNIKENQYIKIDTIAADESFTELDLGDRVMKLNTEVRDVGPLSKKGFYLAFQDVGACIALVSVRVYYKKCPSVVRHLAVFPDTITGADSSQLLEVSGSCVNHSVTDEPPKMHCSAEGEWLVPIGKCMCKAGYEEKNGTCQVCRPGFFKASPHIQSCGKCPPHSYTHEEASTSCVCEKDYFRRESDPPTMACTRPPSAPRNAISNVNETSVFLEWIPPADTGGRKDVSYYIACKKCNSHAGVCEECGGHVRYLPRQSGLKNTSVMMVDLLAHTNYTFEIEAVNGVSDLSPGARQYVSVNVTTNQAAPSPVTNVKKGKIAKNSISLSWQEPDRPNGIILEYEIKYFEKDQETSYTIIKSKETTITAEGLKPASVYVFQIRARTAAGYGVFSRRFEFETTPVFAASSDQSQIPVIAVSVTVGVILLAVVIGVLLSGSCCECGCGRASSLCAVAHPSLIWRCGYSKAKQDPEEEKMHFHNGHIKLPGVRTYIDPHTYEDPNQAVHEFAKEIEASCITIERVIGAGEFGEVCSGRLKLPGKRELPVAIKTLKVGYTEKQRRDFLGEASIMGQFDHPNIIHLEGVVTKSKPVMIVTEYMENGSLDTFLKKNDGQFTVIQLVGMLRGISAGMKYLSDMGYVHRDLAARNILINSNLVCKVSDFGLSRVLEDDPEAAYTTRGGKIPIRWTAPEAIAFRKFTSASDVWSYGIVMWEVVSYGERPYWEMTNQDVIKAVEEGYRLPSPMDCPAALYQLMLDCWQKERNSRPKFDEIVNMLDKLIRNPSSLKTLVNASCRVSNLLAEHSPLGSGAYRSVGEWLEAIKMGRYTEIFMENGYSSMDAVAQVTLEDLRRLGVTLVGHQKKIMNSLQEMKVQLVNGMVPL
pIC50: −log10 of the molar value.
reported.property: pIC50

## Task Record lookup: for EPHA5 (Homo sapiens, UniProt P54756), what pIC50 belongs to NC(N)=NCCC[C@H](NCN1CCN(C(=O)c2cc(Cc3n[nH]c(=O)c4ccccc34)ccc2F)CC1)C(=O)O [PPNR-4] ?
## Result < 5.00

* * *

tgt: EPHB3 (Homo sapiens, UniProt P54753)
Sequence (P54753 34-998): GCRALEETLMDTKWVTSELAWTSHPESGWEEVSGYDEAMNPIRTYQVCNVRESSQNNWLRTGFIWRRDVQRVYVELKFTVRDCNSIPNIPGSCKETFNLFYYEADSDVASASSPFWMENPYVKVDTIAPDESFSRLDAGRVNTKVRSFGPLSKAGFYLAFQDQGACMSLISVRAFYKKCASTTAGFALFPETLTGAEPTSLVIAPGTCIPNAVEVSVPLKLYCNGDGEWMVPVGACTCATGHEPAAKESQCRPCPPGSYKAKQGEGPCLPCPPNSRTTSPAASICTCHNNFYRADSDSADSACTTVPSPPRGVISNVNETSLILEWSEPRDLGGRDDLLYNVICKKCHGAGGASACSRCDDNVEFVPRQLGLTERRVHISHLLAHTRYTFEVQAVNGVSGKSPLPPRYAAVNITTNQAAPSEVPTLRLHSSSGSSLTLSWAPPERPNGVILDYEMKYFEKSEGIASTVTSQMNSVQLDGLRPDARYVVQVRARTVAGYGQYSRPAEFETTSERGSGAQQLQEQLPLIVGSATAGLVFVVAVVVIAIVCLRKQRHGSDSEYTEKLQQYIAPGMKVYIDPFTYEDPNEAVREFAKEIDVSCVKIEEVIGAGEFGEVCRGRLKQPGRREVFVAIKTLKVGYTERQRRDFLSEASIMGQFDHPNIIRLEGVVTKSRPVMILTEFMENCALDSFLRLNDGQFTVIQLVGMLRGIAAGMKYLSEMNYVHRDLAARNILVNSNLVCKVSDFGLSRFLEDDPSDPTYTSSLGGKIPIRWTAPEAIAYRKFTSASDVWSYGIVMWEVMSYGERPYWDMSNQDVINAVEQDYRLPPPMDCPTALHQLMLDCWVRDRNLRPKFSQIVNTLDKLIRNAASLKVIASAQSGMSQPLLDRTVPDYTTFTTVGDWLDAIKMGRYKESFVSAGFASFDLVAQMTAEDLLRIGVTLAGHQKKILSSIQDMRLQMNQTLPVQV
reported.property: IC50

## Task Could you share which IC50 value was measured for NC(N)=NCCC[C@H](NCN1CCN(C(=O)c2cc(Cc3n[nH]c(=O)c4ccccc34)ccc2F)CC1)C(=O)O [PPNR-4] ?
## Result > 10 µM
